Reference source for all entries: patent US9556154B2

- experiment-notes: Cytotoxicity to HUVEC (MTS)
- Type: cell-based, Human
- test-settings: human, HUVEC cells; 72 h
Each entry below carries its recorded CC50 at 72 h.

{"molecule": "Cc1[nH]c(/C=C2\\C(=O)Nc3ccc(F)cc32)c(C)c1NC(=O)C1CCN(C)CC1 [Compound 5]", "property-label": "CC50 at 72 h", "result": "> 20 µM"}
{"molecule": "Cc1[nH]c(/C=C2\\C(=O)Nc3ccc(F)cc32)c(C)c1NC(=O)C1CCN(C(=O)N2CCCC2)CC1 [Compound 11]", "property-label": "CC50 at 72 h", "result": "> 20 µM"}

Here's the next entry for you.
Return the recorded CC50 at 72 h value; entry: Cc1[nH]c(/C=C2\C(=O)Nc3ccc(F)cc32)c(C)c1NC(=O)[C@H]1CCCN1C(=O)N(C)C [Compound 8]
> 20 µM
